studySystem: GORASP2, Q9H8Y8
assayText: holdup assay
Parameters: key: below the threshold = too weak to quantify, mostly under pKd 3.1 to 4
assayContext: plain residues with an end cap or a label only (N-terminal biotin on a linker: ado-ado)
quantityMeasured: pKd

Answered cases to consult:
                                 binder  quantitymeasured          measurement
0  KSGKQTMLVV [TRIM29, Q14134;Q14134-2]               pKd                  4.6
1            PEYLGLDVPV [ERBB2, P04626]               pKd  below the threshold
2            PKRSFIESNV [TANC1, Q9C0D5]               pKd                 4.06
3            PAPSSGKDYV [CLDN1, O95832]               pKd                 3.67
4            DTTVPESEDL [MYOZ2, Q9NPC6]               pKd  below the threshold
5            VRNLPESEEL [MYOZ3, Q8TDC0]               pKd  below the threshold
6           EALLQMESVA [CAVIN3, Q969G5]               pKd  below the threshold

# context switch: different binder, same pKd
Query: Record request: pKd value, item NHSSSPETTA [TRMT13, Q9NUP7]
Result: below the threshold
